molecular target: hERG (KCNH2) (Homo sapiens, UniProt Q12809); assay: Displacement of [35S][…] from human ERG channel at 10 uM
Sequence (Q12809 whole entry): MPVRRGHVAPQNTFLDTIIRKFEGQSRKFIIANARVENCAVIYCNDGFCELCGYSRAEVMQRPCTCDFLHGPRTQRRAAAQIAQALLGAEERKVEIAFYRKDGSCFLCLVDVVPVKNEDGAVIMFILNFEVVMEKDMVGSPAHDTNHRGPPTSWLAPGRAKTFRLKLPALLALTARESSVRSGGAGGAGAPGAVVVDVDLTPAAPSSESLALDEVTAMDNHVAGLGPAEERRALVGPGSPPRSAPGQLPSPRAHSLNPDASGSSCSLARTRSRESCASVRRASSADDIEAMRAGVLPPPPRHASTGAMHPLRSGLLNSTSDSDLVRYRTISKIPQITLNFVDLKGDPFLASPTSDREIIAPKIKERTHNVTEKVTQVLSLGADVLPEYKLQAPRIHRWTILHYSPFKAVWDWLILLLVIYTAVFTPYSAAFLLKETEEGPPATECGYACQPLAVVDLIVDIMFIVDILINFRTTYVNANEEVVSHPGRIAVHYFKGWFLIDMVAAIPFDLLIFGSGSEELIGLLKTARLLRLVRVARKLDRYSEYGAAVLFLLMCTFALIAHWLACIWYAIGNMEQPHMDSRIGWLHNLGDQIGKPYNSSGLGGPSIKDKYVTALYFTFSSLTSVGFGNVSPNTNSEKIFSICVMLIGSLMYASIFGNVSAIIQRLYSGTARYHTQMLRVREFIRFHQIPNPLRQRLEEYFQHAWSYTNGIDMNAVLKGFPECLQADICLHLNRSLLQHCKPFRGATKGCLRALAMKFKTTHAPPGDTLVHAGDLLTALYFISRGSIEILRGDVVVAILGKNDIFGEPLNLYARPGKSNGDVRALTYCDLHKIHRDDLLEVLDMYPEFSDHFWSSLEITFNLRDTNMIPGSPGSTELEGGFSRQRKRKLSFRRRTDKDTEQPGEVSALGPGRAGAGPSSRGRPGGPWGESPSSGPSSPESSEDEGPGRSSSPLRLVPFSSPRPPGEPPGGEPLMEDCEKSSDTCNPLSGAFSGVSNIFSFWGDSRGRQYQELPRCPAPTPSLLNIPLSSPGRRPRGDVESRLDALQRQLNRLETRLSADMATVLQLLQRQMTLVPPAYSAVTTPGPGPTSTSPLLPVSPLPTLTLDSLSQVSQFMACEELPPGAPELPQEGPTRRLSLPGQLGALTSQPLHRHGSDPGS
I'd appreciate it if you could supply inhibition at 10 µM values for the items below.
Give bare numbers, in %.

// solved cases for inhibition at 10 µM follow
Cc1cc(C(N)=O)nn1-c1cccc(-c2ccccc2OCC(F)(F)C(F)(F)F)c1 = 49
Cc1cc(C(N)=O)nn1-c1cccc(-c2c(C(F)(F)F)cccc2C(F)(F)F)c1 = 67
Cc1cc(C(N)=O)nn1-c1cc(-c2ccccc2OC(F)(F)F)ccc1F = 62
NC(=O)c1cc(N)n(-c2cccc(-c3ccccc3OC(F)(F)F)c2)n1 = 44
NC(=O)c1ccn(-c2cccc(-c3ccccc3OC(F)(F)F)c2)n1 = 51
Cc1cc(C(N)=O)nn1-c1cccc(-c2ccccc2OC(F)(F)F)c1 = 6

// next entry
Query: Look up inhibition at 10 µM of Cc1cc(C(N)=O)nn1-c1cccc(-c2ccccc2OCC(F)(F)F)c1 and report it.
Reply: 43
